Entry source: paper PMC9951879

assay: Liver microsomal stability, human; format: in vitro ADME; details: human liver microsomes, 1 μM (verapamil 0.5 μM)
READOUT_NAME: half-life at 1 μM (min)

[[record]]
molecule = "COc1cc(CCC(=O)/C=C/c2ccc([N+](=O)[O-])s2)ccc1O"
value_units = "min"
observed = 10.5

[[record]]
molecule = "COc1cc(CCC(=O)/C=C/c2sccc2C)ccc1O"
value_units = "min"
observed = 11.8

[[record]]
molecule = "COc1cc(CCC(=O)/C=C/c2cccs2)ccc1O"
value_units = "min"
observed = 10.6

[[record]]
molecule = "COc1cc(CCC(=O)/C=C/c2ccsc2)ccc1O"
value_units = "min"
observed = 10.2

[[record]]
molecule = "COc1cc(CCC(=O)/C=C/c2cc(-c3ccccc3)cs2)ccc1O"
value_units = "min"
observed = 14.3

[[record]]
molecule = "CCCCC/C=C/C(=O)CCc1ccc(O)c(OC)c1 [6-shogaol, reference compound]"
value_units = "min"
observed = 9.63

[[record]]
molecule = "CCc1ccc(/C=C/C(=O)CCc2ccc(O)c(OC)c2)s1"
value_units = "min"
observed = 11.6

[[record]]
molecule = "COc1cc(CCC(=O)/C=C/c2cc(Br)cs2)ccc1O"
value_units = "min"
observed = 11.5

[[record]]
molecule = "COc1cc(CCC(=O)/C=C/c2ccc(Br)s2)ccc1O"
value_units = "min"
observed = 13.7

